Entry source: patent US10167313B2

test system: Hela cells; assay: Inhibition of proteolytic cleavage of PARP in staurosporine-treated live Hela cells; format: cell-based; conditions: Homo sapiens, 50 uM, relative to DEVDFMK, read-out: % of inhibition with compound relative to DEVDFMK
propertyLabel: inhibition at 50 µM (%)
// note: answer is a bare numeric in %

[Q] // Input: `CC(C)[C@H](NC(=O)[C@H](Cc1ccc2ccccc2n1)NC(=O)[C@H](CC(=O)O)NC(=O)OCc1ccccc1)C(=O)N[C@H](/C=C/S(C)(=O)=O)CC(=O)O` . Output its inhibition at 50 µM only.
[A] 60

[Q] # return recorded inhibition at 50 µM for input `CC(C)[C@H](NC(=O)[C@H](CCC(=O)O)NC(=O)[C@H](CC(=O)O)NC(=O)OCc1ccccc1)C(=O)N[C@H](/C=C/S(C)(=O)=O)CC(=O)O`
[A] 70

[Q] Assign inhibition at 50 µM to the following record: `CC(C)[C@H](NC(=O)[C@@H](NC(=O)[C@H](CC(=O)O)NC(=O)OCc1ccccc1)C1Cc2ccccc2C1)C(=O)N[C@H](/C=C/S(C)(=O)=O)CC(=O)O`
[A] 70

[Q] Return value of inhibition at 50 µM for input `CC(C)[C@H](NC(=O)[C@H](Cc1ccc(O)cc1)NC(=O)[C@H](CC(=O)O)NC(=O)OCc1ccccc1)C(=O)N[C@H](/C=C/S(C)(=O)=O)CC(=O)O` , no commentary.
[A] 60

[Q] Report inhibition at 50 µM for `CC(C)[C@H](NC(=O)[C@@H](NC(=O)[C@H](CC(=O)O)NC(=O)OCc1ccccc1)C1Cc2ccccc2C1)C(=O)N[C@H](/C=C/S(=O)(=O)C(C)C)CC(=O)O`
[A] 50
